# experimentalDetails: Kinetic solubility of compound at pH 6.8
# Type: physicochemical
# measurementParameters: buffer, read-out: Kinetic_solubility
resultType: solubility kinetic (µM)
Answers are plain numbers, in µM.

Sample records with solubility kinetic:
| entrySmiles | solubility kinetic, µM |
| --- | --- |
| CCc1nc(-c2cnc(N)c(OC(F)F)c2)c2ccc([C@H]3COCCN3C)cn12 | 284 |
| CN1CCC(c2ccc3c(-c4cnc(N)c(C(F)(F)F)c4)nc(C(F)(F)F)n3c2)CC1 | 76 |
| CN1CCCC[C@H]1c1ccc2c(-c3cnc(N)c(C(F)(F)F)c3)ncn2c1 | 73 |

Turning now to a further record.
INPUT: For CC(C)c1ccc2c(-c3cnc(N)c(C(F)(F)F)c3)ncn2c1 , write its solubility kinetic.
OUTPUT: 10
